Test system: A549/ATCC NSCLC
measurement.description: NCI-60 one-dose screen, 48 h
condition.summary: 10 µM unless noted
This is part of a sample that, as a whole, favours compounds with a hit. Of some 83,000 tested, about 20% had one in any assay. Active and inactive are the calls of the source. How the source made its calls: active means growth percent below 10; inactive means the rest.
Answer with one of the outcomes given here: active, inactive

Below, 8 compounds whose answers are already recorded.
>>> df
                                   compound  answer_label
0  COc1ccc2c(c1)C(Br)=C(CCO)C2c1ccccc1 (centres undefined)      inactive
1  COc1cnc2c(c1)C(=O)c1c-2n(CCCNCCN2CCOCC2)c(=O)c2cc([N+](=O)[O-])ccc12        active
2  CN(C)CCCC1(c2ccc(F)cc2)OCc2cc(-c3ccc(C(F)(F)F)nc3)ccc21 (centres undefined)      inactive
3  COc1ccc(NC(=S)N/N=C/c2ccccc2SSCCC(=O)OC[C@H]2O[C@H](O)[C@H](O)[C@@H](O)[C@@H]2O)cc1      inactive
4  Cn1cc(-c2csc(-c3cn(CCCN4CCCCC4)c4ccc(F)cc34)n2)c2cccnc21      inactive
5                COc1ccc(/C=C/C(=O)NCCO)cc1      inactive
6                   NNC(=O)c1nc2ccccc2[nH]1      inactive
7  Cn1cc(-c2csc(-c3cn(C(=O)OC(C)(C)C)c4ccc(Br)cc34)n2)c2cccnc21      inactive

Turning to the following compound.
Qu. Called result for C=C(C)[C@@H]1CC[C@]2(C)[C@H](CC[C@@H]3[C@H]4[C@H]5OC[C@@]4(CCC5(C)C)CC[C@]32C)[C@@]1(C)CCCN
Ans. inactive

* * *

Tested on: HOP-92 NSCLC
measurement.description: NCI-60 one-dose screen, 48 h (100 = growth as untreated, 0 = no growth, -100 = all killed)
condition.summary: 10 µM unless noted
The panel holds about 83,000 compounds, 20% with a hit somewhere; the sample as a whole holds those more often.
Assign true (1) whenever growth does not fall below 40%; assign false (0) whenever it does.

>>> df
                         compound_structure   measured_on  answer_label
0  COc1cccc(-c2nn(-c3ccccc3)cc2-c2ccnc(NCCCNS(=O)(=O)c3ccc(Br)cc3)c2)c1  HOP-92 NSCLC     false (0)
1  O=S(=O)(NCCNc1cc(-c2cn(-c3ccccc3)nc2-c2cccc(O)c2)ccn1)c1ccc(Br)cc1  HOP-92 NSCLC     false (0)
2  COc1cc(/C=N/NC(=S)NNC(=S)NC2CCCCC2)cc(OC)c1OC  HOP-92 NSCLC      true (1)
3          CCN(CC)CCCCCCNc1ccnc2cc(Cl)ccc12  HOP-92 NSCLC      true (1)
4  CC1(C)CC[C@]2(C(=O)Nc3ccccn3)CC[C@]3(C)C(=CC[C@@H]4[C@@]5(C)C/C(=C/c6ccncc6)C(=O)C(C)(C)[C@@H]5CC[C@]43C)[C@@H]2C1  HOP-92 NSCLC      true (1)

Qu. Evaluate Cn1c2c(c3ccc(Cl)cc31)-n1cccc1C2=O : growth at minimum 40%?
Ans. true (1)

Qu. Evaluate COc1ccc(-c2cc(/C=C/C(=O)c3ccc(N)cc3)[nH]n2)cc1 : growth at minimum 40%?
Ans. true (1)

Qu. Evaluate O=C(NO)c1ccc(Cn2c(=O)n(CCc3ccc(O)cc3)c(=O)c3ccccc32)cc1 : growth at minimum 40%?
Ans. true (1)

Qu. Evaluate CCc1ccccc1NC(=O)c1sc2nc3c(cc2c1N)CCCC3 : growth at minimum 40%?
Ans. false (0)
